- Tested on: HUVEC/MSC spheroids viability
- procedure.text: Human HUVEC/MSC cell line growth inhibition [KRAS2];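 also: percent of DMSO vehicle control luminescence so 100% = untreated viability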
- assay.conditions: second compound 1 µM; first compound 0.316 µM; hits give low values
I'd appreciate it if you could supply viability, T/C values for the items below.
A number alone suffices; assume %.

**Query** // fetch HUVEC/MSC spheroids viability viability, T/C for Cn1nccc1Nc1nccc(-c2cc3c(s2)C(C)(C)N(CCN2CCOCC2)C3=O)n1 + CC1OCC2(CCN(c3cnc(Sc4ccnc(N)c4Cl)c(N)n3)CC2)C1N
**Result** 107

**Query** Entry to check: CCNC(=O)CC1N=C(c2ccc(Cl)cc2)c2cc(OC)ccc2-n2c(C)nnc21 (stereo not given) + C=CC(=O)N1CCN(c2nc(=O)n(-c3c(C)ccnc3C(C)C)c3nc(-c4c(O)cccc4F)c(F)cc23)C(C)C1
**Result** 140

**Query** Cool, now Cn1nccc1Nc1nccc(-c2cc3c(s2)C(C)(C)N(CCN2CCOCC2)C3=O)n1 + C=CC(=O)N1CCN(c2nc(=O)n(-c3c(C)ccnc3C(C)C)c3nc(-c4c(O)cccc4F)c(F)cc23)C(C)C1
**Result** 129

**Query** Lookup COC(=O)c1ccc2c(C(=Nc3ccc(N(C)C(=O)CN4CCN(C)CC4)cc3)c3ccccc3)c(O)[nH]c2c1 + C=CC(=O)N1CCN(c2nc(=O)n(-c3c(C)ccnc3C(C)C)c3nc(-c4c(O)cccc4F)c(F)cc23)C(C)C1
**Result** 115

**Query** Same again, this time with COc1cc2nccc(Oc3ccc(NC(=O)C4(C(=O)Nc5ccc(F)cc5)CC4)cc3)c2cc1OC + CC1OCC2(CCN(c3cnc(Sc4ccnc(N)c4Cl)c(N)n3)CC2)C1N
**Result** 82.4

**Query** # iterate: Cn1nccc1Nc1nccc(-c2cc3c(s2)C(C)(C)N(CCN2CCOCC2)C3=O)n1 + CNCc1ccccc1-c1csc(C(C)Nc2nc(C)nc3cc(OC)c(OC)cc23)c1
**Result** 103

**Query** COc1cc2nccc(Oc3ccc(NC(=O)C4(C(=O)Nc5ccc(F)cc5)CC4)cc3)c2cc1OC + COc1cc2nc(C)nc(NC(C)c3cc(N)cc(C(F)(F)F)c3)c2cc1OC1CCOC1 ?
**Result** 58.1

**Query** Now give it for CC1OCC2(CCN(c3cnc(Sc4ccnc(N)c4Cl)c(N)n3)CC2)C1N (stereo not given) + COc1cc2nc(C)nc(NC(C)c3cc(N)cc(C(F)(F)F)c3)c2cc1OC1CCOC1 too.
**Result** 67.5

**Query** Again, but for CC(C)NCC(C(=O)N1CCN(c2ncnc3c2C(C)CC3O)CC1)c1ccc(Cl)cc1 (stereo not given) + C=CC(=O)N1CCN(c2nc(=O)n(-c3c(C)ccnc3C(C)C)c3nc(-c4c(O)cccc4F)c(F)cc23)C(C)C1
**Result** 96.4

**Query** Can you check CCN1CCN(Cc2ccc(Nc3ncc(F)c(-c4cc(F)c5nc(C)n(C(C)C)c5c4)n3)nc2)CC1 + COc1cc2nc(C)nc(NC(C)c3cc(N)cc(C(F)(F)F)c3)c2cc1OC1CCOC1 next?
**Result** 95.7

**Query** // next record COC(=O)c1ccc2c(C(=Nc3ccc(N(C)C(=O)CN4CCN(C)CC4)cc3)c3ccccc3)c(O)[nH]c2c1 + CNCc1ccccc1-c1csc(C(C)Nc2nc(C)nc3cc(OC)c(OC)cc23)c1
**Result** 72.3

**Query** Now give it for CCN1CCN(Cc2ccc(Nc3ncc(F)c(-c4cc(F)c5nc(C)n(C(C)C)c5c4)n3)nc2)CC1 + CC1OCC2(CCN(c3cnc(Sc4ccnc(N)c4Cl)c(N)n3)CC2)C1N too.
**Result** 102

**Query** Queued: COc1cc2nccc(Oc3ccc(NC(=O)C4(C(=O)Nc5ccc(F)cc5)CC4)cc3)c2cc1OC + CNCc1ccccc1-c1csc(C(C)Nc2nc(C)nc3cc(OC)c(OC)cc23)c1
**Result** 66.6

**Query** Now consider CCN1CCN(Cc2ccc(Nc3ncc(F)c(-c4cc(F)c5nc(C)n(C(C)C)c5c4)n3)nc2)CC1 + C=CC(=O)N1CCN(c2nc(=O)n(-c3c(C)ccnc3C(C)C)c3nc(-c4c(O)cccc4F)c(F)cc23)C(C)C1 and answer again.
**Result** 119

**Query** Also check CCNC(=O)CC1N=C(c2ccc(Cl)cc2)c2cc(OC)ccc2-n2c(C)nnc21 (stereo not given) + COc1cc2nc(C)nc(NC(C)c3cc(N)cc(C(F)(F)F)c3)c2cc1OC1CCOC1
**Result** 73
